Entries annotated with measured pKd
molecular target: UniProt:P62937; test: CYPA-compound binary complex formation by SPR; details: read-out: CYPA Binding Affinity
pKd: −log10 of the molar value.

CC(C)[C@@H](C(=O)N[C@H]1Cc2cc(O)cc(c2)-c2cc3c(ccn3CC(C)(C)COC(=O)[C@@H]3CCCN(N3)C1=O)cn2)N(C)C(=O)C1CN(C(=O)CCl)C1 [Compound 178] = 4.82 to 5.30

Record CC1COC(=O)C2CCCN(N2)C(=O)C(NC(=O)C(C(C)C)N(C)C(=O)C2CN(C(=O)CCl)C2)Cc2cc(O)cc(c2)-c2ccc3c4c(n(c3c2)C1)CCC4C#N (mixture of isomers) [Compound 74] has UniProt:P62937 pKd equal to ≥ 5.30

Record C=CC(=O)N1CCN(C(C(=O)NC2Cc3cc(O)cc(c3)-c3ccc4c(C#N)cn(c4c3)CCCOC(=O)C3CCCN(N3)C2=O)C(C)C)C1=O (centres unmarked) [Compound 94] has UniProt:P62937 pKd equal to ≥ 5.30

Record CC(C)C(C(=O)NC1Cc2cc(O)cc(c2)-c2ccc3c(C(C)(C)C#N)cn(c3c2)CC(C)(C)COC(=O)C2CCCN(N2)C1=O)N1CCC2(CN(C(=O)CCl)C2)C1=O (centres unmarked) [Compound 44] has UniProt:P62937 pKd equal to 4.82 to 5.30

Record CC(C)[C@@H](C(=O)N[C@H]1Cc2cc(O)cc(c2)-c2ccc3c(C#N)cn(c3c2)CC(C)(C)CNC(=O)[C@@H]2CCCN(N2)C1=O)N(C)C(=O)C1CN(C(=O)CCl)C1 [Compound 3] has UniProt:P62937 pKd equal to ≥ 5.30

###

test system: pERK in H358 cells; experiment: pERK inhibition in H358 cells; type: cell-based, human; settings: 4 hours treatment, read-out: Cellular pERK inhibition
pIC50: −log10 of the molar value.
valueType: pIC50

Some solved entries appear below for comparison.
CC(C)[C@@H](C(=O)N[C@H]1Cc2cc(O)cc(c2)-c2ccc3c(c2)N(CC(C)(C)COC(=O)[C@@H]2CCCN(N2)C1=O)C(=O)C3)N(C)C(=O)C1CN(C(=O)CCl)C1 [Compound 177] = 5.00 to 6.00
C=CC(=O)N1CCC(C(=O)N(C)C(C(=O)NC2Cc3cc(O)cc(c3)-c3ccc4c(c3)c(c(C#N)n4CCOC)CC(C)(C)COC(=O)C3CCCN(N3)C2=O)C(C)C)C1 (stereo not drawn) [Compound 400] = 5.00 to 6.00

Let us move to another entry and its pIC50.
The molecule identified as CC#CC(=O)N1CCN(C(=O)N(C)[C@H](C(=O)N[C@H]2Cc3cc(O)cc(c3)-c3ccc4c(C(C)(C)C#N)cn(c4c3)CC(C)(C)COC(=O)[C@@H]3CCCN(N3)C2=O)C(C)C)CC1 [Compound 343] registered its pIC50 at 5.00 to 6.00

###

target: cyclophilin A (CYPA) (Homo sapiens, UniProt P62937); experiment: CYPA-compound binary complex formation by SPR; conditions: read-out: CYPA Binding Affinity
Sequence (P62937 whole entry): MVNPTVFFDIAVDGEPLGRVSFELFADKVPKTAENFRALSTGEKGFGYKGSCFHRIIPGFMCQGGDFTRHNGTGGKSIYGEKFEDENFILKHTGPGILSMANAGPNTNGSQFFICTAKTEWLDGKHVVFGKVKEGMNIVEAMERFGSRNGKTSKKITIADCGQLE
pKd: −log10 of the molar value.
Entries annotated with measured pKd

Some solved entries appear below for comparison.
CC(C)[C@@H](C(=O)N[C@H]1Cc2cc(O)cc(c2)-c2ccc3c(Cl)nn(c3c2)CC(C)(C)COC(=O)[C@@H]2CCCN(N2)C1=O)N(C)C(=O)C1CN(C(=O)CCl)C1 = < 4.82
C=CC(=O)N1CCN([C@H](C(=O)N[C@H]2Cc3cc(O)cc(c3)-c3ccc4c(C)cn(c4c3)CC(C)(C)COC(=O)[C@@H]3CCCN(N3)C2=O)C(C)C)C1=O = < 4.82
CCN1CCC(=O)N2C[C@H](C)COC(=O)[C@@H]3CCCN(N3)C(=O)[C@@H](NC(=O)[C@H](C(C)C)N(C)C(=O)C3CN(C(=O)CCl)C3)Cc3cc(O)cc(c3)-c3ccc1c2c3 = 4.82 to 5.30
C=CC(=O)N1CCN([C@H](C(=O)N[C@H]2Cc3cc(O)cc(c3)-c3ccc4nc(CC)n(c4c3)CCCOC(=O)[C@@H]3CCCN(N3)C2=O)C(C)C)C1=O = ≥ 5.30

Let us move to another entry and its pKd.
Record `CC(C)[C@@H](C(=O)N[C@H]1Cc2cc(O)cc(c2)-c2ccc3c(Cl)cn(c3c2)CC(C)(C)COC(=O)[C@@H]2CCCN(N2)C1=O)N(C)C(=O)C1CN(C(=O)CCl)C1` has cyclophilin A (CYPA) (Homo sapiens, UniProt P62937) pKd equal to < 4.82

Data provenance is patent US20240139185A1.
